- System: Aspergillus fumigatus
- Experiment Notes: Antifungal activity against Aspergillus fumigatus Af293 expressing cnaA gene assessed as abnormal hyphal growth by CLSI method
- Format: functional
- Recorded Conditions: read-out: MEC
*1 amine or outer side, *2 acyl side, *3 side chain or, on linkers, in order; H or OH if unused. Where a SMILES comes first, the peptide text is derived from it. Bridges are numbered along the chain shown (N, C = ends). [ ]: non-standard residue; d: D form. The star is where a group is joined. hTyr(3S-OH,4S-OH,3'-OSO3H) = N[C@H](C(=O)O)[C@H](O)[C@@H](O)c1ccc(O)c(OS(=O)(=O)O)c1; pTerphenylCO(4''-OnC5H11) = CCCCCOc1ccc(-c2ccc(-c3ccc(C(=O)*)cc3)cc2)cc1; Orn(4R-OH,5R-OH) = O=C([C@H](C[C@@H](O)[C@@H](O)N[*:3])N[*:1])[*:2]; hTyr(3S-OH,4S-OH) = N[C@H](C(=O)O)[C@H](O)[C@@H](O)c1ccc(O)cc1; Pro(3S-OH,4S-Me) = C[C@H]1CN[C@H](C(=O)O)[C@H]1O; X1 = CCCCCOc1ccc(-c2cc(-c3ccc(C(=O)*)cc3)no2)cc1; Gln(3R-OH) = NC(=O)C[C@@H](O)[C@H](N)C(=O)O; Hyp = O=C(O)[C@@H]1C[C@@H](O)CN1
Measured Quantity: log10 of minimal effective concentration (log10 of the value in µg/mL)

{"Compound": "CCCCCOc1ccc(-c2ccc(-c3ccc(C(=O)N[C@H]4C[C@@H](O)[C@@H](O)NC(=O)[C@@H]5[C@@H](O)[C@@H](C)CN5C(=O)[C@H]([C@@H](C)O)NC(=O)[C@H]([C@H](O)[C@@H](O)c5ccc(O)cc5)NC(=O)[C@@H]5C[C@@H](O)CN5C(=O)[C@H]([C@@H](C)O)NC4=O)cc3)cc2)cc1 [ANIDULAFUNGIN] ({pTerphenylCO(4''-OnC5H11)}-[Orn(4R-OH,5R-OH)]T[Hyp][hTyr(3S-OH,4S-OH)]T[Pro(3S-OH,4S-Me)]; lactam 1-C)", "log10 of minimal effective concentration": -1.20}
{"Compound": "CCCCCOc1ccc(-c2cc(-c3ccc(C(=O)N[C@H]4C[C@@H](O)[C@@H](O)NC(=O)[C@@H]5[C@@H](O)[C@@H](C)CN5C(=O)[C@H]([C@H](O)CC(N)=O)NC(=O)[C@H]([C@H](O)[C@@H](O)c5ccc(O)c(OS(=O)(=O)O)c5)NC(=O)[C@@H]5C[C@@H](O)CN5C(=O)[C@H]([C@@H](C)O)NC4=O)cc3)no2)cc1 [MICAFUNGIN] (X1-[Orn(4R-OH,5R-OH)]T[Hyp][hTyr(3S-OH,4S-OH,3'-OSO3H)][Gln(3R-OH)][Pro(3S-OH,4S-Me)]; lactam 1-C)", "log10 of minimal effective concentration": -0.90}
{"Compound": "C[C@@H]([C@H](N)C(=O)N[C@H](C(=O)O)[C@H]1O[C@@H](n2ccc(=O)[nH]c2=O)[C@H](O)[C@@H]1O)[C@H](O)c1ccc(O)cn1 [NIKKOMYCIN]", "log10 of minimal effective concentration": 0.30}
{"Compound": "C=CC[C@@H]1/C=C(\\C)C[C@H](C)C[C@H](OC)[C@H]2O[C@@](O)(C(=O)C(=O)N3CCCC[C@H]3C(=O)O[C@H](/C(C)=C/[C@@H]3CC[C@@H](O)[C@H](OC)C3)[C@H](C)[C@@H](O)CC1=O)[C@H](C)C[C@@H]2OC [TACROLIMUS ANHYDROUS]", "log10 of minimal effective concentration": -1.70}
{"Compound": "CC[C@H](C)C[C@H](C)CCCCCCCCC(=O)N[C@H]1C[C@@H](O)[C@@H](NCCN)NC(=O)[C@@H]2[C@@H](O)CCN2C(=O)[C@H]([C@H](O)CCN)NC(=O)[C@H]([C@H](O)[C@@H](O)c2ccc(O)cc2)NC(=O)[C@@H]2C[C@@H](O)CN2C(=O)[C@H]([C@@H](C)O)NC1=O [CASPOFUNGIN]", "log10 of minimal effective concentration": 0.00}

----------
- Tested on: Aspergillus fumigatus
- Experiment Notes: Antifungal activity against rasA deficient Aspergillus fumigatus H237 assessed as abnormal hyphal growth by CLSI method
- Type: functional
- Recorded Conditions: read-out: MEC
*1 amine or outer side, *2 acyl side, *3 side chain or, on linkers, in order; H or OH if unused. Where a SMILES comes first, the peptide text is derived from it. Bridges are numbered along the chain shown (N, C = ends). [ ]: non-standard residue; d: D form. The star is where a group is joined. hTyr(3S-OH,4S-OH,3'-OSO3H) = N[C@H](C(=O)O)[C@H](O)[C@@H](O)c1ccc(O)c(OS(=O)(=O)O)c1; pTerphenylCO(4''-OnC5H11) = CCCCCOc1ccc(-c2ccc(-c3ccc(C(=O)*)cc3)cc2)cc1; Orn(4R-OH,5R-OH) = O=C([C@H](C[C@@H](O)[C@@H](O)N[*:3])N[*:1])[*:2]; hTyr(3S-OH,4S-OH) = N[C@H](C(=O)O)[C@H](O)[C@@H](O)c1ccc(O)cc1; Pro(3S-OH,4S-Me) = C[C@H]1CN[C@H](C(=O)O)[C@H]1O; X1 = CCCCCOc1ccc(-c2cc(-c3ccc(C(=O)*)cc3)no2)cc1; Gln(3R-OH) = NC(=O)C[C@@H](O)[C@H](N)C(=O)O; Hyp = O=C(O)[C@@H]1C[C@@H](O)CN1
# reported minimal effective concentration; entries follow
Measured Quantity: minimal effective concentration

{"Compound": "CCCCCOc1ccc(-c2ccc(-c3ccc(C(=O)N[C@H]4C[C@@H](O)[C@@H](O)NC(=O)[C@@H]5[C@@H](O)[C@@H](C)CN5C(=O)[C@H]([C@@H](C)O)NC(=O)[C@H]([C@H](O)[C@@H](O)c5ccc(O)cc5)NC(=O)[C@@H]5C[C@@H](O)CN5C(=O)[C@H]([C@@H](C)O)NC4=O)cc3)cc2)cc1 [ANIDULAFUNGIN] ({pTerphenylCO(4''-OnC5H11)}-[Orn(4R-OH,5R-OH)]T[Hyp][hTyr(3S-OH,4S-OH)]T[Pro(3S-OH,4S-Me)]; lactam 1-C)", "Experimental System": "Aspergillus fumigatus", "Result": "2 µg/mL"}
{"Compound": "C=CC[C@@H]1/C=C(\\C)C[C@H](C)C[C@H](OC)[C@H]2O[C@@](O)(C(=O)C(=O)N3CCCC[C@H]3C(=O)O[C@H](/C(C)=C/[C@@H]3CC[C@@H](O)[C@H](OC)C3)[C@H](C)[C@@H](O)CC1=O)[C@H](C)C[C@@H]2OC [TACROLIMUS ANHYDROUS]", "Experimental System": "Aspergillus fumigatus", "Result": "0.001 µg/mL"}
{"Compound": "CC[C@H](C)C[C@H](C)CCCCCCCCC(=O)N[C@H]1C[C@@H](O)[C@@H](NCCN)NC(=O)[C@@H]2[C@@H](O)CCN2C(=O)[C@H]([C@H](O)CCN)NC(=O)[C@H]([C@H](O)[C@@H](O)c2ccc(O)cc2)NC(=O)[C@@H]2C[C@@H](O)CN2C(=O)[C@H]([C@@H](C)O)NC1=O [CASPOFUNGIN]", "Experimental System": "Aspergillus fumigatus", "Result": "8 µg/mL"}
{"Compound": "CCCCCOc1ccc(-c2cc(-c3ccc(C(=O)N[C@H]4C[C@@H](O)[C@@H](O)NC(=O)[C@@H]5[C@@H](O)[C@@H](C)CN5C(=O)[C@H]([C@H](O)CC(N)=O)NC(=O)[C@H]([C@H](O)[C@@H](O)c5ccc(O)c(OS(=O)(=O)O)c5)NC(=O)[C@@H]5C[C@@H](O)CN5C(=O)[C@H]([C@@H](C)O)NC4=O)cc3)no2)cc1 [MICAFUNGIN] (X1-[Orn(4R-OH,5R-OH)]T[Hyp][hTyr(3S-OH,4S-OH,3'-OSO3H)][Gln(3R-OH)][Pro(3S-OH,4S-Me)]; lactam 1-C)", "Experimental System": "Aspergillus fumigatus", "Result": "> 4 µg/mL"}

----------
- System: Aspergillus fumigatus
- Experiment Notes: Antifungal activity against rasA deficient Aspergillus fumigatus H237 assessed as abnormal hyphal growth by CLSI method
- Format: functional
- Recorded Conditions: read-out: MEC
Measured Quantity: minimal effective concentration

{"Test Smiles": "C[C@@H]([C@H](N)C(=O)N[C@H](C(=O)O)[C@H]1O[C@@H](n2ccc(=O)[nH]c2=O)[C@H](O)[C@@H]1O)[C@H](O)c1ccc(O)cn1", "Result": "0.5 µg/mL"}

----------
- Test system: Aspergillus fumigatus
- Experiment Notes: Antifungal activity against Aspergillus fumigatus H237 expressing rasA gene assessed as abnormal hyphal growth by CLSI method
- Type: functional
- Recorded Conditions: read-out: MEC
Measured Quantity: minimal effective concentration (µg/mL)

{"Compound": "CC[C@H](C)C[C@H](C)CCCCCCCCC(=O)N[C@H]1C[C@@H](O)[C@@H](NCCN)NC(=O)[C@@H]2[C@@H](O)CCN2C(=O)[C@H]([C@H](O)CCN)NC(=O)[C@H]([C@H](O)[C@@H](O)c2ccc(O)cc2)NC(=O)[C@@H]2C[C@@H](O)CN2C(=O)[C@H]([C@@H](C)O)NC1=O [CASPOFUNGIN]", "Measured Quantity": "minimal effective concentration", "Uom": "µg/mL", "Readout Number": 1}
